molecular target: antithrombin III (plasma purified human AT-III), used as the AT-III/unfractionated heparin complex; test: K0.5 ratio to Catalyst Biosciences WT FIXa, AT-III/UFH inhibition assay
measured endpoint: K0.5-mut/K0.5-wt (fold)
Give just the numeric value; fold need not be written.

- FIXa-R318Y/R338E/R403E/E410N (protein) chain 1: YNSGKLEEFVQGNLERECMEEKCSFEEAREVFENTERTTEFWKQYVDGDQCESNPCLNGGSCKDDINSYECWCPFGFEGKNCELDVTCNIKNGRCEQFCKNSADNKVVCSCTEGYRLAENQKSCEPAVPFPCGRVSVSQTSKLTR chain 2: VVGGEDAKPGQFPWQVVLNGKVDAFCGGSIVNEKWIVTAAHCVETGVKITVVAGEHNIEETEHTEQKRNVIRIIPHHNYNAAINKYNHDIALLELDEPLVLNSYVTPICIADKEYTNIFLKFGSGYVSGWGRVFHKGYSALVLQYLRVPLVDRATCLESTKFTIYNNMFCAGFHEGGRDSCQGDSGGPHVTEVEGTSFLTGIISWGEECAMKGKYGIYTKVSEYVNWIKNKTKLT: 304

May I ask what K0.5-mut/K0.5-wt has been recorded for FIXa-D203N/F205T/R338A (protein) chain 1: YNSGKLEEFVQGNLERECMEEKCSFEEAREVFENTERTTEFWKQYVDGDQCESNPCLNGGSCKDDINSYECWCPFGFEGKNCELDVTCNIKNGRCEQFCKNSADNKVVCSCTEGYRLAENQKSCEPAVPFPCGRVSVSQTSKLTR chain 2: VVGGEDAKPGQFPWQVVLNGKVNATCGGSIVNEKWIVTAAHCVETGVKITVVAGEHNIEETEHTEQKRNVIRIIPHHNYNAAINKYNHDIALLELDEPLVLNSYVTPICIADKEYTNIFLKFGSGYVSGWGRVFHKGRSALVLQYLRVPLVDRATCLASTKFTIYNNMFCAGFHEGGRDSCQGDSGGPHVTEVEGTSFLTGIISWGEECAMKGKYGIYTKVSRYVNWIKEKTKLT ? 21.9

meta.source: patent US20210238260
